Overview of reported EC50 across a group of binders:
- Measured Target: T1, GST-RIM2 (KIAA0751) PDZ domain 1 (human)
- T1 construct: Construct RIM2, PDZ domain 1-pGEX-3X; vector sites BamH1/EcoR1, insert sites BglII/MfeI; also called GST-RIM2 PDZ domain; RIM3 (as printed once)
- T1 sequence (chain, as listed by the source): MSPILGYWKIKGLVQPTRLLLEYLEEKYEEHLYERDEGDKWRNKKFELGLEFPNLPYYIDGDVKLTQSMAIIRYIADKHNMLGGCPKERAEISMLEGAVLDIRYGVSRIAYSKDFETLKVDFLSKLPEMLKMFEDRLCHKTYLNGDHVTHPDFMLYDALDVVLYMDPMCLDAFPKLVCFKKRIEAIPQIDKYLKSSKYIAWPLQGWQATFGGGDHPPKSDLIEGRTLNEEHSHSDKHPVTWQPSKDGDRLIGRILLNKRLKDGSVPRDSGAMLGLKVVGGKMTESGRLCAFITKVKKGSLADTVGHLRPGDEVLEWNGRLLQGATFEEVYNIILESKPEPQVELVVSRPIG
- Method: modified ELISA, GST-PDZ captured by anti-GST, biotinylated peptide titrated
Where no end group is shown, it is not given here.

{"columns": ["Binder", "EC50 (nM)"],
 "data": [
  ["YGRKKRRQRRRQDEEEGIWA (also: biotinylated, position not given here, also called AVC#1790; AVC 1790) [YGRKKRRQRRRQDEEEGIWA (SEQ ID NO: 137)]", 5],
  ["YGRKKRRQRRRARGDRKRIV (also: biotinylated, position not given here, also called AVC#1796; AVC 1796) [YGRKKRRQRRRARGDRKRIV (SEQ ID NO: 136)]", 20],
  ["YGRKKRRQRRRAVAATSINL (also: biotinylated, position not given here, TAT plus 9 residues; also called AVC#1791; AVC 1791) [YGRKKRRQRRRAVAATSINL (SEQ ID NO: 138)]", 40]
]}

Reference for the values: patent US20080090770A1
